Target: Integrin alpha-5/beta-1 (Homo sapiens, UniProt P05556+P08648)
Sequence (P05556 21-798 limits assumed): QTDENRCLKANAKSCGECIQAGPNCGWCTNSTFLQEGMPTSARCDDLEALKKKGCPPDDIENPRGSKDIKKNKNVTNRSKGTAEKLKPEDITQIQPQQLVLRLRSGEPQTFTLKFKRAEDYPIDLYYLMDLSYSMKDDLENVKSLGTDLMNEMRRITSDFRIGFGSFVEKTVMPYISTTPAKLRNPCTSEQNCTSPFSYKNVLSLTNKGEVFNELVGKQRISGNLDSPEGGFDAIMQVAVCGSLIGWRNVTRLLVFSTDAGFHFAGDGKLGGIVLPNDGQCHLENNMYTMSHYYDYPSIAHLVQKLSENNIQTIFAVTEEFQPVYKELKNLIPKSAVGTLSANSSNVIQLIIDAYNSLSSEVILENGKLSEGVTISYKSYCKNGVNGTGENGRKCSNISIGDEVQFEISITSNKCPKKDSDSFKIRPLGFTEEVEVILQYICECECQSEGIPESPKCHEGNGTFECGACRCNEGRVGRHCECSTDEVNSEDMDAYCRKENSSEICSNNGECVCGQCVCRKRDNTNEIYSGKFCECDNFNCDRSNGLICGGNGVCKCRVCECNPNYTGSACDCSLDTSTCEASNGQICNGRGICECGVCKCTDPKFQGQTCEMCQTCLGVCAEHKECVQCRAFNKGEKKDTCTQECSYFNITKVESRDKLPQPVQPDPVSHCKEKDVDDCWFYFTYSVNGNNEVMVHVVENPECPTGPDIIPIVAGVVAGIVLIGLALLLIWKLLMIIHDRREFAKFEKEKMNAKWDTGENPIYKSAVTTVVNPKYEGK
Sequence (P08648 42-894 limits assumed): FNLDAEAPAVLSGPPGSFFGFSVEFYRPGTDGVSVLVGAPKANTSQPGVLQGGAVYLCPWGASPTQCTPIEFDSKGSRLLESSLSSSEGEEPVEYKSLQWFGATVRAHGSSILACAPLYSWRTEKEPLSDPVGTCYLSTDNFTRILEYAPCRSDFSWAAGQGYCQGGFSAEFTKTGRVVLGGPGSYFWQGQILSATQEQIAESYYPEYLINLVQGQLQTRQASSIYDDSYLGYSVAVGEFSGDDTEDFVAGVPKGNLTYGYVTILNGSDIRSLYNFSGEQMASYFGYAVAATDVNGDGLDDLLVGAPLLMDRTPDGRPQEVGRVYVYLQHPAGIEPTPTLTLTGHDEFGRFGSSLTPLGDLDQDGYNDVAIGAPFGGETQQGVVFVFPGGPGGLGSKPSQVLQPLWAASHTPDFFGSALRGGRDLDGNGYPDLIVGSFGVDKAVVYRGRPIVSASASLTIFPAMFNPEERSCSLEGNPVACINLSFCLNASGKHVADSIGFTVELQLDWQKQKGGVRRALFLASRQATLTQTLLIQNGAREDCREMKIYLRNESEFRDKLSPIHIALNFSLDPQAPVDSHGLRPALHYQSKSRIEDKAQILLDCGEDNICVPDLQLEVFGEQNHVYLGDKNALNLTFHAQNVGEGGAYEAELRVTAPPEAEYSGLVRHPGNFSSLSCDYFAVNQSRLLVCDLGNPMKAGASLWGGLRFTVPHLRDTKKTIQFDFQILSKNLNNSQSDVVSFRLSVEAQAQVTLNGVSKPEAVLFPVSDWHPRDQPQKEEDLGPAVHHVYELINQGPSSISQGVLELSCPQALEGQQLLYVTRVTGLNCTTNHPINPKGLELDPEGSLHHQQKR
Sequence (P08648 895-1049 limits assumed): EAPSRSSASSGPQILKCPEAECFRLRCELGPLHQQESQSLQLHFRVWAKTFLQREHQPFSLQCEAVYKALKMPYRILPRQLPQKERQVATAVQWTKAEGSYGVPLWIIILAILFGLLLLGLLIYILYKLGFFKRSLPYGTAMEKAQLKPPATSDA
Test: Inhibition of interaction between HUVEC cells and fibronectin
measured.quantity: IC50 (µM)
Give your result in µM as a bare value.

Recorded IC50 for N=C(N)c1ccc(C2=NOC(CC(=O)NCCC(=O)O)C2)cc1 (stereo unspecified) on Integrin alpha-5/beta-1 (Homo sapiens, UniProt P05556+P08648) was 180

* * *

Biological target: Integrin alpha-IIb/beta-3 (Homo sapiens, UniProt P05106+P08514)
Sequence (P05106 27-788 limits assumed): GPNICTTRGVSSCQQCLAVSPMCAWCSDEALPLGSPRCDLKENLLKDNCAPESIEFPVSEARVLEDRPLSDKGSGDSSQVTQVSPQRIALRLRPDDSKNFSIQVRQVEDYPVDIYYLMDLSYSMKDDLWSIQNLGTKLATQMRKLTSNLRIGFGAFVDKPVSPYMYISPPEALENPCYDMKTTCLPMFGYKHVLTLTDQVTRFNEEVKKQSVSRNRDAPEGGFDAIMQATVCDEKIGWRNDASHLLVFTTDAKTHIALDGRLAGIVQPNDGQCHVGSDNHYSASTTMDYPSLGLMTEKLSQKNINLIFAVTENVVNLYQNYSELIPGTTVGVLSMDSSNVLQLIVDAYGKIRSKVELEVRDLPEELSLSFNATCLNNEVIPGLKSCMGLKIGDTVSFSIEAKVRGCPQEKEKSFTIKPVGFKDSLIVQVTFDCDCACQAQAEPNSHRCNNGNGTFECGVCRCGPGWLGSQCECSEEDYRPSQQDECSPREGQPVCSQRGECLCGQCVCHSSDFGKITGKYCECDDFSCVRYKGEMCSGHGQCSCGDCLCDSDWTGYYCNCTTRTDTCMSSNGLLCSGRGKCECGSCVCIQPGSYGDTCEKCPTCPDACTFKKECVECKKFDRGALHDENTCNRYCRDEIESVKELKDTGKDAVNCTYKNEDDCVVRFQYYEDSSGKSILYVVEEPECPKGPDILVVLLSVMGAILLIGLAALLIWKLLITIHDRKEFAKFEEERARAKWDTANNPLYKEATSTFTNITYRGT
Sequence (P08514 32-887 limits assumed): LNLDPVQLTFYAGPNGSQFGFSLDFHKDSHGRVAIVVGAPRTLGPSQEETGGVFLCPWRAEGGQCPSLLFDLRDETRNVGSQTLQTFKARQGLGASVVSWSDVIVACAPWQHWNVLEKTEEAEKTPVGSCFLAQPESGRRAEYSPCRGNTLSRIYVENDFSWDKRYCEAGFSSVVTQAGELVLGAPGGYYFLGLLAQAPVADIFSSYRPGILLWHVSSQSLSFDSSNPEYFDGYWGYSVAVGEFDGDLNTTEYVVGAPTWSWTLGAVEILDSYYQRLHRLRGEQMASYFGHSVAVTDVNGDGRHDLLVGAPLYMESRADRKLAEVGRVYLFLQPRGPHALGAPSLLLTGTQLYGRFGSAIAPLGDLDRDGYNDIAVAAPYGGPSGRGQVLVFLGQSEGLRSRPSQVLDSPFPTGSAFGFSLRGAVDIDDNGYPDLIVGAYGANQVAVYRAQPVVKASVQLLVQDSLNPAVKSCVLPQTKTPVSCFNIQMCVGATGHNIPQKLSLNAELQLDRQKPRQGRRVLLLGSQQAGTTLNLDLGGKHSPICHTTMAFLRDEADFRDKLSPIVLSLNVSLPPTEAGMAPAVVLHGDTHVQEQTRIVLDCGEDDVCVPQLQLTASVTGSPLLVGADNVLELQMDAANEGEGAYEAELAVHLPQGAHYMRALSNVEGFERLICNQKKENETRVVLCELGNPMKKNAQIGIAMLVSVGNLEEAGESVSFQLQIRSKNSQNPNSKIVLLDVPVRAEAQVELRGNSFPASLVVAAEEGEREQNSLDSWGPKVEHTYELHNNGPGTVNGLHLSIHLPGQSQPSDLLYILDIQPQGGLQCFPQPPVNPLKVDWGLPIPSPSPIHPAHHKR
Sequence (P08514 891-1039 limits assumed): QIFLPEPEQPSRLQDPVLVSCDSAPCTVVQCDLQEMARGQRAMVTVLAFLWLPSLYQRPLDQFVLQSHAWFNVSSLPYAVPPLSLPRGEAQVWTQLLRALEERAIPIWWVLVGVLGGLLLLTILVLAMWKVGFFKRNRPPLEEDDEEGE
Assay: Inhibition of Fibrinogen Receptor integrin alphaIIb-beta3 in ELISA
Format: protein-complex assay
measured.quantity: IC50 (nM)
# value in nM; strip the unit string

# compound N=C(N)c1ccc(C2=NOC(CC(=O)NCCC(=O)O)C2)cc1 (stereo unspecified) ; its IC50 = 1.1
